System: MS2 coat protein
methodSummary: apparent KD of MS2 coat protein, switch OFF state (with FMN for OFF switches, without FMN for ON switches); designed switch direction (-1 OFF switch, 1 ON switch): -1; higher = weaker reporter binding
studyConditions: FMN input: 0 or 200 uM; Eterna round: R93 (includes R88 designs)
property: apparent KD of MS2 coat protein (µM)
Give bare numbers, in µM.

| sequenceString | measurement |
| --- | --- |
| AAAAAGUGAGGAUAUACGUUAAAAAAAAAAAAAAAAAAGCAGUAGAAGGCACAUGAGGAUCACCCAUGUAAAAA [Ex4 Malc#2] | 0.026 |
| CUCUUGUAAGGAUAUUAAUGAAAUGAAGUGAAAGAAAAGAAUAAGAAGGUACAUGAGGAUCACCCAUGUUAGAA [EteRNA is fun!] | 0.027 |
| AAGAAGUGAGGAUAUCGAAGACUGUCGAAAAGACAGUCGAACGAGAAGGCACAUGAGGAUCACCCAUGUGGAAA [Marsurpial 65% 5] | 0.0363 |
| AAGAAGUGAGGAUAUGGAAAAGAAAAGAAAAGAAAAGAAAACCAGAAGGCACAUGAGGAUCACCCAUGUAAGAA [Artabanus the Hyrcanian] | 0.028 |
| AAGAAACGAGGAUAUACAAGAAAGAAAGAAAAGAAAAGAAAACAUGAGGAUCACCCAUGUAGAAGGCGUUAGAA [EteRNA is fun!] | 0.0138 |
| AACUGACAUGAGGAUCACCCAUGUCAGGAUAUGCAUCUUAGGAAAAAAAAACUAAGAUGCAGAAGGGACAAGGG [Amethyst 48] | 0.0331 |
| AAAAAAUAAGGAUAUACAUUUCGGGAAAUUUUUACAAAAAAACAUGAGGAUCACCCAUGUAGAAGGUAUAAAAA [Exclusion 2] | 0.0177 |
| AUAGUACAUGAGGAUCACCCAUGUCAGGAUAUUCGAAACGAAAAAAAAAAAAAGUGAAGGAGAAGGGACUAUAA [EX1 Malc#10] | 0.0211 |

Record apparent KD of MS2 coat protein for all entries; do not skip any.
1. AAAUAGUUAGGAUAUACAUGAGGAUCACCCAUGUGCACGUAUGGAGAAUAUGGUGGUGGUAGAAGGGACUAAAA [EX2 Malc#20]
2. AAGAAGCAAGGAUAUACAUGAGGAUCACCCAUGUAAAAGAAAGAAAGGGAAAAGAAAAGUAGAAGGUGCAAGAA [Titkheperure Pasebakhenniut II]
3. AAAUAGUUAGGAUAUACAUGAGGAUCACCCAUGUGGACUUAUGGCGAAUAAUUUAGUGGUAGAAGGGACUAAAA [EX2 Malc#28]
4. AGCUAGUCAGGAUAUACAAACAUGUCAAAAGACGUGAAGGAACAUGAGGAUCACCCAUGUAGAAGGGACUAGCA [Web Mod 74% 3]

1: 0.0947; 2: 0.057; 3: 0.0538; 4: 0.0195
